Test: viability loss in pontine glioma line – cell-based, SU-DIPG-XXV, MIPE5.0, CellTiter-Glo, qHTS, dose response (AID 1347065);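 also: cells exposed to compound for 48 hours before ATP readout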
Settings: CellTiter-Glo ATP luminescence
Records with an inconclusive call do not appear. Calls of active or inactive are those of the source. The limit is not given here; nearly all actives have AC50 up to about 26 µM.
Hi! Could you answer with just one of these? active, inactive

What is the recorded call for this compound in the test? Nc1ccn([C@@H]2CS[C@H](CO)O2)c(=O)n1
inactive

Outcome? CCN(CC)CCOc1ccc(Nc2ncc3cc(-c4c(Cl)cccc4Cl)c(=O)n(C)c3n2)cc1
active

# outcome recorded in this test, key = C=C1/C(=C\C=C2/CCC[C@]3(C)[C@@H]([C@H](C)CCCC(C)(C)O)CC[C@@H]23)C[C@@H](O)C[C@@H]1O
inactive

Which outcome was entered for the compound Cc1[nH]c(/C=C2\C(=O)Nc3ccc(S(=O)(=O)Cc4c(Cl)cccc4Cl)cc32)c(C)c1C(=O)N1CCC[C@@H]1CN1CCCC1 in this test?
active

// return assay outcome for CC(C)C(C)/C=C/C(C)C1CCC2C3=CC=C4CC(O)CCC4(C)C3CCC21C (centres undefined)
inactive

I'd appreciate the recorded outcome for COc1cc(OC)c(NC(=O)Nc2cc(C)on2)cc1Cl from this test.
inactive

Each compound tested received a call. Report the one for C[C@H](NC(=O)c1sccc1OCc1ccc(Cl)cc1)c1ccccc1 .
active

Test call, this compound: CC(=O)SCC(Cc1ccccc1)C(=O)NCC(=O)OCc1ccccc1 (centres undefined)
inactive

# outcome recorded in this test, key = C[C@@H](N)C1CCC(C(=O)Nc2ccncc2)CC1 (some centres undefined)
inactive

Please state the recorded outcome for this compound: CCCCS(=N)(=O)CCC(N)C(=O)O (centres undefined)
inactive

Hello, I am checking results. What call was entered for Oc1ccc(Nc2nc(-c3ccc(Cl)cc3)cs2)cc1 ?
active

Lab log entry: COc1cc2c(cc1O)CC[C@@H]1[C@@H]2CC[C@]2(C)[C@@H](O)CC[C@@H]12 — outcome as called in the assay?
active

I would be grateful if you could indicate the recorded call for CCOc1ccc(Nc2nc(-c3c(C)nc4ccccn34)cs2)cc1 .
active

Which outcome was assigned to Nc1nc(F)nc2c1ncn2[C@@H]1O[C@H](COP(=O)(O)O)[C@@H](O)[C@@H]1O in this test?
inactive

How did this test come out for CC(C)[C@H](CO)Nc1nc(Nc2cccc(Cl)c2)c2ncn(C(C)C)c2n1 ?
active

// param item: CCC(=O)NS(=O)(=O)c1ccc(-c2c(-c3ccccc3)noc2C)cc1 ; yields the recorded call
inactive

Recorded test outcome, item Oc1ccc2ccccc2c1SSc1c(O)ccc2ccccc12
active

Could you check what this test reported for COC(=O)Nc1nc2ccc(C(=O)c3ccc(F)cc3)cc2[nH]1 ?
active

Please let me know the test result on file for O=c1[nH]c(=O)n(C2CCCO2)cc1F (centres undefined) .
inactive

Record lookup: outcome of this test for Nc1nccc(-c2ccc3noc(-c4ccc(Cl)cc4)c3c2)n1 ?
active

// return assay outcome for CN1C(C(=O)Nc2ccccn2)=C(O)c2sc(Cl)cc2S1(=O)=O
inactive

Tell me the recorded outcome of this test for C[C@@H](c1ncncc1F)[C@](O)(Cn1cncn1)c1ccc(F)cc1F .
inactive

Recorded test call requested for Clc1ccc(-c2nc3sccn3c2/C=N/OCc2ccc(Cl)c(Cl)c2)cc1
active

Which outcome did this test record for the compound CC[C@H]1OC(=O)[C@H](C)[C@@H](O[C@H]2C[C@@](C)(OC)[C@@H](O)[C@H](C)O2)[C@H](C)[C@@H](O[C@@H]2O[C@H](C)C[C@H](N(C)C)[C@H]2O)[C@](C)(O)C[C@@H](C)CN(C)[C@H](C)[C@@H](O)[C@]1(C)O ?
inactive

Query: recorded result category for O=C(O)CCc1ccc(NCc2cccc(Oc3ccccc3)c2)cc1 in this test
inactive

Which outcome did this test record for the compound COc1c(N2C[C@@H]3CCCN[C@@H]3C2)c(F)cc2c(=O)c(C(=O)O)cn(C3CC3)c12 ?
inactive

// param item: Cc1c(-c2cnccn2)ssc1=S ; yields the recorded call
active

How was Clc1ccc(CCC(Cn2ccnc2)Sc2c(Cl)cccc2Cl)cc1 (centres undefined) classified in this test?
inactive

Recorded test outcome, item CC(NCCc1ccc(O)cc1)C(O)c1ccc(O)cc1 (centres undefined)
inactive

// return assay outcome for CN[C@@H]1[C@H](O[C@H]2[C@H](O[C@@H]3[C@@H](O)[C@H](O)[C@@H](N=C(N)N)[C@H](O)[C@H]3N=C(N)N)O[C@@H](C)[C@]2(O)C=O)O[C@@H](CO)[C@H](O)[C@H]1O
inactive

What is the recorded call for this compound in the test? CCOC(=O)C1=C(N)Oc2ccc(Br)cc2C1C(C#N)C(=O)OCC (centres undefined)
active

Can you look up the reported call for CN1[C@@H]2CCC[C@H]1CC(NC(=O)c1nn(C)c3ccccc13)C2 (some centres undefined) for me?
inactive

Dear colleague, could you share the recorded outcome for O=c1ccn([C@@H]2O[C@H](CO)[C@@H](O)[C@H]2O)c(=O)[nH]1 when you have a moment?
inactive

Outcome? CC(C)NCC(O)c1ccc(NS(C)(=O)=O)cc1 (centres undefined)
inactive

Assay outcome for O=S(=O)(NCCNC/C=C/c1ccc(Br)cc1)c1cccc2cnccc12 : what was it?
active

What did this assay record as the result for C[C@H]1O[C@H](O[C@H]2[C@H](O)[C@@H](O)[C@@H](O[C@H]3[C@H](O)[C@@H](O)C(O)O[C@@H]3CO)O[C@@H]2CO)[C@H](O)[C@@H](O)[C@@H]1N[C@H]1C=C(CO)[C@@H](O)[C@H](O)[C@H]1O (some centres undefined) ?
inactive

// outcome(item) with item = CC(C)N(CCC(=O)c1ccc2ccccc2c1)Cc1ccccc1
active

What call does the record list for Cc1cnc(C(=O)NCCc2ccc(S(=O)(=O)NC(=O)NC3CCCCC3)cc2)cn1 ?
inactive

Please share the test call associated with O=Nc1c(-c2c(O)[nH]c3cc(Br)ccc23)[nH]c2ccccc12 .
active
